- EXPERIMENT SUMMARY: in vivo;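 also: anesthetized dogs on 4 h hemodialysis with bicarbonate dialysate, one enriched with vitamin-free casein acid hydrolysate, control animal on standard dialysis, plasma amino acids measured at 0 and 4 h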
- SETUP CONDITIONS: dog, plasma
Label yes when concentration at 4 h is strictly below 200 µM; at or above that, label no.

Example entries begin here.
1. N[C@@H](CS)C(=O)O : yes
2. NCC(=O)O : no
3. CSCC[C@H](N)C(=O)O : yes
4. C[C@H](N)C(=O)O : no
5. CC[C@H](C)[C@H](N)C(=O)O : yes

**Query** Check if concentration at 4 h falls below 200 µM for N[C@@H](Cc1c[nH]c2ccccc12)C(=O)O .
**Result** yes

----------
- EXPERIMENT SUMMARY: in vivo
- SETUP CONDITIONS: dog, plasma
Lab note: compare concentration at 0 h against 100 µM. Equal or greater, write true. Smaller, write false.

Example entries and their recorded answers appear below.
1. CC(C)[C@H](N)C(=O)O : true
2. N[C@@H](Cc1ccc(O)cc1)C(=O)O : false
3. CC[C@H](C)[C@H](N)C(=O)O : false
4. C[C@@H](O)[C@H](N)C(=O)O : true

**Query** Please indicate if the recorded concentration at 0 h for N[C@@H](CC(=O)O)C(=O)O [aspartate] meets or exceeds 100 µM.
**Result** false

**Query** Now consider C[C@H](N)C(=O)O .
**Result** true

**Query** Another molecule to check: N=C(N)NCCC[C@H](N)C(=O)O
**Result** true

**Query** And then CC(C)C[C@H](N)C(=O)O , what is it?
**Result** true

----------
Known concentration at 4 h of a selection of compounds
- EXPERIMENT SUMMARY: in vivo
- SETUP CONDITIONS: dog, plasma

**Query** Entry N[C@@H](Cc1ccc(O)cc1)C(=O)O has what concentration at 4 h?
**Result** 48 µM

----------
- EXPERIMENT SUMMARY: in vivo
- SETUP CONDITIONS: dog, plasma
EXPERIMENTAL ENDPOINT: concentration at 4 h (µM)
Please reply with the bare figure in µM and do not write the unit itself.

**Query** Requested read-out: concentration at 4 h. Entry: NCCCC[C@H](N)C(=O)O
**Result** 198

----------
- EXPERIMENT SUMMARY: in vivo
- SETUP CONDITIONS: dog, plasma
Recorded concentration at 0 h, one value per entry.
Report as a plain number; the unit µM is understood.

Known concentration at 0 h results, listed for orientation:
1) N[C@@H](Cc1c[nH]cn1)C(=O)O [histidine] : 68
2) N[C@@H](Cc1ccccc1)C(=O)O [phenylalanine] : 34
3) N[C@@H](Cc1c[nH]c2ccccc12)C(=O)O [tryptophan] : 52

**Query** Endpoint output: concentration at 0 h of NCC(=O)O [glycine] . Value?
**Result** 306

----------
- EXPERIMENT SUMMARY: in vivo
- SETUP CONDITIONS: dog, plasma
EXPERIMENTAL ENDPOINT: log10(concentration at 4 h) (log10 of the value in µM)
Note the log scale: values are log10 of concentration at 4 h expressed in µM.

Sample records with log10(concentration at 4 h):
1) N[C@@H](Cc1c[nH]cn1)C(=O)O : 1.94
2) C[C@@H](O)[C@H](N)C(=O)O : 2.11
3) CC(C)C[C@H](N)C(=O)O : 2.46
4) N[C@@H](Cc1ccccc1)C(=O)O : 1.91

# next molecule below
**Query** # lookup: log10(concentration at 4 h) of N[C@@H](CC(=O)O)C(=O)O [aspartate]
**Result** 1.08

----------
- EXPERIMENT SUMMARY: in vivo
- SETUP CONDITIONS: dog, plasma
The entries below are paired with their reported concentration at 4 h.
Response body: numeric value in µM, unit text excluded.

1. CC(C)[C@H](N)C(=O)O : 242
2. N[C@@H](CO)C(=O)O : 154

**Query** Need concentration at 4 h, item N=C(N)NCCC[C@H](N)C(=O)O
**Result** 148

**Query** One more compound: O=C(O)[C@@H]1CCCN1
**Result** 428

----------
- EXPERIMENT SUMMARY: in vivo
- SETUP CONDITIONS: dog, plasma
EXPERIMENTAL ENDPOINT: concentration at 0 h (µM)
Answer format: numeric, µM implied, no suffix.

1. NCCCC[C@H](N)C(=O)O : 98
2. N[C@@H](CS)C(=O)O : 8
3. O=C(O)[C@@H]1CCCN1 : 336
4. CSCC[C@H](N)C(=O)O : 44

**Query** Look up concentration at 0 h for this compound: N[C@@H](CO)C(=O)O
**Result** 154
